System: astro (control astrocytes)
assay: Drug repurposing screens with cells derived from glioblastoma tumor samples (AID 1345199); further: nearly all actives have a fitted effect of over 40% in size
condition-notes: viability, ATP luminescence, 48 h; series mostly up to 45.9 µM
Records with an inconclusive call do not appear. Active and inactive are the calls of the source. The call rests on the fitted dose curve; in most records, active means well fitted inhibition curve with a large enough effect; inconclusive means small, poorly fitted or top-dose-only effect; inactive means flat fitted curve, though single readings scatter.
Write down the outcome that applies. Available outcomes: active, inactive

Take a look at these entries with their results.
[
  {
    "smiles-code": "COc1cc(C(=O)NS(=O)(=O)c2ccccc2C)ccc1Cc1cn(C)c2ccc(NC(=O)OC3CCCC3)cc12",
    "category": "inactive"
  },
  {
    "smiles-code": "COC(=O)[C@]12CCC(C)(C)C[C@@H]1[C@@H]1C(=O)C=C3[C@@]4(C)C=C(C#N)C(=O)C(C)(C)[C@@H]4CC[C@@]3(C)[C@]1(C)CC2",
    "category": "active"
  },
  {
    "smiles-code": "C=CC(=O)Nc1cc2c(Nc3ccc(F)c(Cl)c3)ncnc2cc1OCCCN1CCOCC1",
    "category": "active"
  }
]

Data request: Which result was noted for this molecule in the test: "COC(=O)C[C@](O)(CCCC(C)(C)O)C(=O)O[C@@H]1C(OC)=C[C@]23CCCN2CCc2cc4c(cc2[C@H]13)OCO4"
Data returned: active

----------
assay: Quantitative High-Throughput drug screen in 47 multiple myeloma cell lines against the NCATS MIPE library collection: OCIMY7_PLB cell viability assay (AID 1918987); further: potency means the concentration at half of the fitted maximal effect; nearly all actives have a fitted effect of over 65% in size
condition-notes: OCI-MY7 myeloma viability, CellTiter-Glo ATP, 48 h; series mostly up to 45.8 µM
Records with an inconclusive call do not appear. The source made the active and inactive calls. Calls follow the shape of the dose curve; as a rule, active = well fitted cell-killing curve with a large enough effect; inconclusive = small, poorly fitted or top-dose-only effect, or effect the other way; inactive = no such curve, though single readings can be large or run the other way.
reported-endpoint: Potency

Before answering, review these 4 worked examples.
[
  {
    "smiles-code": "NC(=O)c1c(OCc2c(F)cc(Br)cc2F)nsc1NC(=O)NCCCCN1CCCC1",
    "reported-endpoint": "Potency",
    "endpoint-value": "8330 nM (active)"
  },
  {
    "smiles-code": "CN1CCN(Cc2ccc(NC(=O)Nc3ccc(Oc4cc(NC(=O)C5CC5)ncn4)cc3)cc2C(F)(F)F)CC1",
    "reported-endpoint": "Potency",
    "endpoint-value": "526 nM (active)"
  },
  {
    "smiles-code": "Nc1ccc(C(=O)c2cc3c(ccc4ccccc43)[nH]2)cc1",
    "reported-endpoint": "Potency",
    "endpoint-value": "743 nM (active)"
  },
  {
    "smiles-code": "O=C(Nc1nc2cccc(-c3ccc(CN4CCS(=O)(=O)CC4)cc3)n2n1)C1CC1",
    "reported-endpoint": "Potency",
    "endpoint-value": "9350 nM (active)"
  }
]

Data request: Look at this compound and give its reported Potency. "C=CC(=O)Nc1cccc(Oc2nc(Nc3ccc(N4CCN(C)CC4)cc3)ncc2Cl)c1"
Data returned: 209 nM (active)

----------
assay: Quantitative High-Throughput drug screen in 47 multiple myeloma cell lines against the NCATS MIPE library collection: OCIMY5_PLB cell viability assay (AID 1918988); further: potency means the concentration at half of the fitted maximal effect; nearly all actives have a fitted effect of over 65% in size
condition-notes: OCI-MY5 myeloma viability, ATP luminescence, 48 h; series mostly up to 45.8 µM
Records with an inconclusive call do not appear. Calls of active or inactive are those of the source. The call rests on the fitted dose curve; in most records, active means well fitted cell-killing curve with a large enough effect; inconclusive means small, poorly fitted or top-dose-only effect, or effect the other way; inactive means no such curve, though single readings can be large or run the other way.
reported-endpoint: Potency

Before answering, review these 3 worked examples.
[
  {
    "molecule": "CC(C)(C)OC(=O)Nc1ccc(-c2cc(C(=O)NCCCCCCC(=O)NO)no2)cc1",
    "endpoint-value": "1870 nM (active)"
  },
  {
    "molecule": "Cc1ccc(-c2ncn(-c3ccc(Nc4nccc(-c5cccc(N6CCOCC6)c5)n4)cc3)n2)cn1",
    "endpoint-value": "52.6 nM (active)"
  },
  {
    "molecule": "CC(C)(O)c1cc2nc(-c3cnc(N)nc3)nc(N3CCOCC3)c2s1",
    "endpoint-value": "105 nM (active)"
  }
]

Lab note: next molecule to report on.
Data request: Look at this molecule and give its reported Potency. C[C@]12CC[C@H](O)CC1=CCC1C2CC[C@]2(C)C(n3cnc4ccccc43)=CCC12 (stereo not given in full)
Data returned: 18700 nM (active)

----------
assay: qHTS to identify inhibitors of the type 1 interferon - major histocompatibility complex class I in skeletal muscle: primary screen against the NCATS Mechanism Interrogation Plate v5.0 (MIPE) Libary (AID 1347411); further: nearly all actives have a fitted effect of over 65% in size
condition-notes: iHSKM cells + IFN-b, HiBiT-tagged MHC-I luminescence, 24 h; series mostly up to 45.8 µM
Records with an inconclusive call do not appear. The source made the active and inactive calls. Calls follow the shape of the dose curve; as a rule, active = well fitted inhibition curve with a large enough effect; inconclusive = small, poorly fitted or top-dose-only effect; inactive = no such curve, though single readings can be large or run the other way.
Write down the outcome that applies. Available outcomes: active, inactive

[
  {
    "smiles-code": "C[C@@H]1COC(Nc2ccc3ncnc(Nc4ccc(OCc5nccs5)c(Cl)c4)c3c2)=N1",
    "category": "active"
  }
]

Data request: Which result was noted for this compound in the test: "OCc1ccc(-c2ccc(-c3ccc(CO)s3)o2)s1"
Data returned: active

Data request: Which result was noted for this compound in the test: "COc1ccc2c(OCc3nnc4ccc(-c5ccccc5)nn34)ccnc2c1"
Data returned: inactive

----------
Test system: KB-3-1
assay: Cytotoxic Profiling of Annotated Libraries Using Quantitative High-Throughput Screening (AID 1296008); further: nearly all actives have a fitted effect of over 60% in size
condition-notes: Five cell lines viability, CellTiter-Glo ATP luminescence, 48-72 h
Description: Cell-based phenotypic screening is a commonly used approach to discover biological pathways, novel drug targets, chemical probes and high-quality hit-to-lead molecules. […] A pintool (Kalypsys) was used to transfer 23 nL of compound solution to the 1536-well assay plates. […] Plates were left at room temperature for 10 min before imaging the ATP-coupled luminescence using a ViewLux microplate imager (PerkinElmer, Waltham, MA).
Records with an inconclusive call do not appear. Calls of active or inactive are those of the source. Calls follow the shape of the dose curve; as a rule, active = well fitted inhibition curve with a large enough effect; inconclusive = small, poorly fitted or top-dose-only effect; inactive = flat fitted curve, though single readings scatter.
Write down the outcome that applies. Available outcomes: 1.0 for active, 0.0 for inactive

Take a look at these entries with their results.
[
  {
    "compound": "Clc1ccc2ncc(-c3cccc(NC4CNC4)n3)n2c1",
    "category": 0.0
  },
  {
    "compound": "COc1c(OCCCN2CCOCC2)ccc2c3n(c(=NC(=O)c4cnc(N)nc4)nc12)CCN3",
    "category": 1.0
  },
  {
    "compound": "Cn1c(CNc2ccc(C(=N)N)cc2)nc2cc(C(=O)N(CCC(=O)O)c3ccccn3)ccc21",
    "category": 0.0
  },
  {
    "compound": "COC(=O)[C@]12CCC(C)(C)C[C@@H]1[C@@H]1C(=O)C=C3[C@@]4(C)C=C(C#N)C(=O)C(C)(C)[C@@H]4CC[C@@]3(C)[C@]1(C)CC2",
    "category": 1.0
  },
  {
    "compound": "CCOc1cc2ncc(C#N)c(Nc3ccc(F)c(Cl)c3)c2cc1NC(=O)C=CCN(C)C",
    "category": 1.0
  }
]

Data request: Which result was noted for this compound in the test: "C=CCn1c(=O)c2cnc(Nc3ccc(N4CCN(C)CC4)cc3)nc2n1-c1cccc(C(C)(C)O)n1"
Data returned: 1.0

Data request: Which result was noted for this compound in the test: O=c1[nH]c(=O)n(C2CCCO2)cc1F (stereo not drawn)
Data returned: 0.0

Data request: Which result was noted for this compound in the test: "CC(=O)Nc1nc(C)c(-c2ccc(Cl)c(S(=O)(=O)NCCO)c2)s1"
Data returned: 1.0

Data request: Which result was noted for this compound in the test: "CC(C)c1nn(-c2c(Cl)cccc2Cl)c2nc(Cc3ccc(OCCO)cc3)[nH]c(=O)c12"
Data returned: 1.0

Data request: Which result was noted for this compound in the test: "CCCCCCCCCC(=O)N[C@@H](Cc1c[nH]c2ccccc12)C(=O)N[C@H](CC(N)=O)C(=O)N[C@@H](CC(=O)O)C(=O)N[C@@H]1C(=O)NCC(=O)N[C@@H](CCCN)C(=O)N[C@@H](CC(=O)O)C(=O)N[C@H](C)C(=O)N[C@@H](CC(=O)O)C(=O)NCC(=O)N[C@H](CO)C(=O)N[C@@H]([C@@H](C)CC(=O)O)C(=O)N[C@@H](CC(=O)c2ccccc2N)C(=O)O[C@@H]1C"
Data returned: 0.0

Data request: Which result was noted for this compound in the test: "Cc1c(Cn2c(C)nc3c(C(=O)O)cc(N4CCOCC4)cc32)cccc1C(F)(F)F"
Data returned: 0.0

Data request: Which result was noted for this compound in the test: "Cc1ccc(-c2ncn(-c3ccc(Nc4nccc(-c5cccc(N6CCOCC6)c5)n4)cc3)n2)cn1"
Data returned: 1.0

Data request: Which result was noted for this compound in the test: "Cc1[nH]c2ccccc2c1CCNCc1ccc(C=CC(=O)NO)cc1"
Data returned: 1.0

Data request: Which result was noted for this compound in the test: "Cn1cncc1[C@@](N)(c1ccc(Cl)cc1)c1ccc2c(c1)c(-c1cccc(Cl)c1)cc(=O)n2C"
Data returned: 1.0

Data request: Which result was noted for this compound in the test: "CC(C)(C)c1cnc(CSc2cnc(NC(=O)C3CCNCC3)s2)o1"
Data returned: 1.0

Data request: Which result was noted for this compound in the test: "C1Cc2[nH]nc(-c3nn[nH]n3)c2C1"
Data returned: 0.0

Data request: Which result was noted for this compound in the test: "CCCCOc1c(C(=O)c2c(F)cc(C)cc2F)cnc2n[nH]cc12"
Data returned: 0.0

Data request: Which result was noted for this compound in the test: "C1=CCOCc2cc(ccc2OCCN2CCCC2)Nc2nccc(n2)-c2cccc(c2)OCC1"
Data returned: 1.0
